molecular target: human IDO1 (Homo sapiens, UniProt P14902); assay: IDO inhibition assay in HEK293 cells stably expressing human IDO1 (kynurenine production, Ehrlich reagent, absorbance 490 nm); details: 20 hours incubation with compound, 500 nM reference standard = 100% inhibition, read-out: IDO1 HEK Human IC50
Sequence (P14902 whole entry): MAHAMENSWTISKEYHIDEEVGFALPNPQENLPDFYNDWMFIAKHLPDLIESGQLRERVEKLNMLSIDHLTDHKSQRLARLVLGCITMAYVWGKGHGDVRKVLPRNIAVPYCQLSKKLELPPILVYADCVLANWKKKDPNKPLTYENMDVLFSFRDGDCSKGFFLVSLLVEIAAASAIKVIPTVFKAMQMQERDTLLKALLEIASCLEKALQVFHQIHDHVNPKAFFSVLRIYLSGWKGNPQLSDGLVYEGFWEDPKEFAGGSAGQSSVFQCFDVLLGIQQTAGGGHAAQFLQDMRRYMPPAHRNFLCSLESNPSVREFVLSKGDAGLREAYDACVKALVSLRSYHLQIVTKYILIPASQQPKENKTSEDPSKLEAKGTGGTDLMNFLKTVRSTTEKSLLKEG
readout type: IC50 (nM)
One number for each entry, in nM.

Previously resolved entries follow.
compound	unit label	reading
CC(C)CN(Cc1ccccc1)c1cc(Nc2cccc(C(F)F)n2)cc(-c2ccccc2-c2nnn[nH]2)n1	nM	19.8
CCCN(Cc1ccccc1)c1cc(NC(=O)Cc2ccc(C)cc2)cc(-c2ccccc2C(=O)O)n1	nM	161
CCN(Cc1ccccc1)c1nc(NC(=O)Cc2ccc(C)cc2)cc(-c2ccccc2-c2nnn[nH]2)n1	nM	89
CCCN(Cc1ccccc1)c1cc(NC(=O)Cc2c(C)noc2C)cc(-c2ccccc2-c2nn[nH]n2)n1	nM	651
COc1cc(Nc2cc(-c3ccccc3-c3nnn[nH]3)nc(N(Cc3ccccc3)CC(C)C)c2)ccc1Cl	nM	2
CCC(CC(=O)O)c1cc(NC(=O)Nc2ccc(C)cc2)cc(N(Cc2ccc(F)cc2)CC(C)C)n1 (single isomer, unassigned)	nM	156

Parameters: items (list). Returns: IC50 for each item.
1. CC(C)CN(Cc1ccccc1)c1cc(Nc2ccc(F)cc2)cc(-c2ccccc2-c2nnn[nH]2)n1
2. Cc1cccnc1Nc1cc(-c2ccccc2-c2nnn[nH]2)nc(N(Cc2ccccc2)CC(C)C)c1
3. Cc1ccc(NC(=O)Nc2cc(-c3ccccc3-c3nnn[nH]3)nc(N(CC(C)C)C3CCCCC3)c2)cc1
4. COc1ccc(Nc2cc(-c3ccccc3-c3nnn[nH]3)nc(N(Cc3ccccc3)CC(C)C)c2)c(F)c1

Ans:
1: 4.9; 2: 393; 3: 365; 4: 3.5

Q: Any idea what IC50 came out for Cc1cncc(Nc2cc(-c3ccccc3-c3nnn[nH]3)nc(N(Cc3ccccc3)CC(C)C)c2)n1 on human IDO1 (Homo sapiens, UniProt P14902)?
Ans: 78
